Values were extracted from ChEMBL document CHEMBL1131191.

Target: Delta-type opioid receptor (Homo sapiens, UniProt P41143)
Sequence (P41143 whole entry): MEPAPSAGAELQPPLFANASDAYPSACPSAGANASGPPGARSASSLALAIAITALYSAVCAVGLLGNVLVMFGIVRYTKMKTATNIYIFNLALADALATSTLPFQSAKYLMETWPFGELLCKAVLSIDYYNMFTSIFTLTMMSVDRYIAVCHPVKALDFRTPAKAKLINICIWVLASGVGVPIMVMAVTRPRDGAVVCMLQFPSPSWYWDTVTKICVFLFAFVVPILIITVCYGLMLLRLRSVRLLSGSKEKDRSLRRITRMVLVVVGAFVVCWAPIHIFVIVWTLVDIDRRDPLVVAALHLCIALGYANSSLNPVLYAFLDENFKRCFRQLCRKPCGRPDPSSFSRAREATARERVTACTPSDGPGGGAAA
Experiment: Binding affinity was measured against cloned human Opioid receptor delta 1 (wild-type,Wt)
assayEndpoint: IC50 (nM)

                                   compound  unitabbrev  endpointvalue
0  CC(C)(C)c1ccc(C(c2cccc(O)c2)N2CCN(Cc3ccccc3)CC2)cc1 (stereo in doubt)          nM           5.51

* * *

Target: Mu-type opioid receptor (Cavia porcellus, UniProt P97266)
Sequence (P97266 whole entry): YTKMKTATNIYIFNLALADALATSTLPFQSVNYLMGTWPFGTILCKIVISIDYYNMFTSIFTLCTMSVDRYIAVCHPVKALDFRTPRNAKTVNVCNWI
Assay: Tested for electrically induced smooth muscle contractions from guinea pig ileum expressed in mu opioid receptors
pEC50: −log10 of the molar value.
assayEndpoint: pEC50

>>> print(df.to_string())
                                   molecule  assayendpoint  endpointvalue
0  Oc1cccc(C(c2ccccc2)N2CCN(Cc3ccccc3)CC2)c1 (centres undefined)          pEC50           5.90
1  CC(C)(C)c1ccc(C(c2cccc(O)c2)N2CCN(Cc3ccccc3)CC2)cc1 (single isomer, unassigned; (+))          pEC50           5.52
2  CC(C)(C)c1ccc(C(c2cccc(O)c2)N2CCN(Cc3ccccc3)CC2)cc1 (single isomer, unassigned; (-))          pEC50           5.12
3  CC(C)(C)c1ccc(C(c2cccc(O)c2)N2CCN(Cc3ccccc3)CC2)cc1 (stereo in doubt)          pEC50           4.41

* * *

Molecular target: Delta-type opioid receptor (Rattus norvegicus, UniProt P33533)
Sequence (P33533 whole entry): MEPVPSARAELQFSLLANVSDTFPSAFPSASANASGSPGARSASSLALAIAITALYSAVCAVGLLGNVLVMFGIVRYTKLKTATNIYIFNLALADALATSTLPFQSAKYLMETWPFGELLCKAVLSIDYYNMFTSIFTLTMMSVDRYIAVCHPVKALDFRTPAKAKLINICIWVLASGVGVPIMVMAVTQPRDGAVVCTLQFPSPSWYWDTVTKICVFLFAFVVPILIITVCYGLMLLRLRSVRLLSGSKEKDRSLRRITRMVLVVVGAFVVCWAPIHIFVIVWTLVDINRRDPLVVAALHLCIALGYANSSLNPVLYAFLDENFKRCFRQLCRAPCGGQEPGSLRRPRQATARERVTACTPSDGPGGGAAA
Assay: Binding affinity was measured against Opioid receptor delta 1 using [3H]p-Cl-DPDPE as radioligand.
pIC50: −log10 of the molar value.
assayEndpoint: pIC50

In [3]: df
Out[3]:
                                   compound  endpointvalue
0           Oc1cccc(CN2CCN(Cc3ccccc3)CC2)c1           5.19
1  CC(C)CC(c1cccc(O)c1)N1CCN(Cc2ccccc2)CC1 (stereo not drawn)           6.38
2  C=CCN1C[C@H](C)N([C@H](c2ccc(C(=O)N(CC)CC)cc2)c2cccc(O)c2)C[C@H]1C           9.51
3  CC(c1cccc(O)c1)N1CCN(Cc2ccccc2)CC1 (stereo not drawn)           6.21
4  Oc1cccc(C(c2ccc(-c3ccccc3)cc2)N2CCN(Cc3ccccc3)CC2)c1 (stereo not drawn)           7.51
5  COc1cccc(C(c2ccc(C(C)(C)C)cc2)N2CCN(Cc3ccccc3)CC2)c1 (stereo not drawn)           5.74
6  Oc1cccc(C(c2ccccc2)N2CCN(Cc3ccccc3)CC2)c1 (stereo not drawn)           7.47
7  Cc1cc(O)cc(C)c1[C@@H](C)[C@H](N)C(=O)N[C@H]1C(=O)NCC(=O)N[C@@H](Cc2ccccc2)C(=O)N[C@@H](C(=O)O)C(C)(C)SSC1(C)C           8.30

* * *

Molecular target: Mu-type opioid receptor (Rattus norvegicus)
Sequence (P33535 whole entry): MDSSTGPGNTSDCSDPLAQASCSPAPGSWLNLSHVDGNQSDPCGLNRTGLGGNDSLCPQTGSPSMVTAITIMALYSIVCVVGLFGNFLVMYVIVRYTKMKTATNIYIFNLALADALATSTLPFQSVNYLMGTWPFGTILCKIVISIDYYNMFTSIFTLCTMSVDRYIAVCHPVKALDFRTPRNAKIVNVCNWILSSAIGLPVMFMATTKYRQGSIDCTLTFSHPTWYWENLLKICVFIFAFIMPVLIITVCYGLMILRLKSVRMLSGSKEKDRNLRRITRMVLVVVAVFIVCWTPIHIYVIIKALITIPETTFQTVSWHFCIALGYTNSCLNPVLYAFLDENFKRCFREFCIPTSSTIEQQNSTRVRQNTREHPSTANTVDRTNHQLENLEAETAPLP
pIC50: −log10 of the molar value.
Label rule, in plain words: pIC50 of 6 and up is satisfied, under 6 is not satisfied.

>>> df
                                   molecule                             subjectoftest     labelclass
0  Oc1cccc(C(c2ccccc2)N2CCN(Cc3ccccc3)CC2)c1 (configuration not stated)  Mu-type opioid receptor (Rattus norvegicus)      satisfied
1  Cc1cc(O)cc(C)c1[C@@H](C)[C@H](N)C(=O)N[C@H]1C(=O)NCC(=O)N[C@@H](Cc2ccccc2)C(=O)N[C@@H](C(=O)O)C(C)(C)SSC1(C)C  Mu-type opioid receptor (Rattus norvegicus)  not satisfied
2  COc1cccc(C(c2ccc(C(C)(C)C)cc2)N2CCN(Cc3ccccc3)CC2)c1 (configuration not stated)  Mu-type opioid receptor (Rattus norvegicus)  not satisfied
3  C=CCN1C[C@H](C)N([C@H](c2ccc(C(=O)N(CC)CC)cc2)c2cccc(OC)c2)C[C@H]1C  Mu-type opioid receptor (Rattus norvegicus)  not satisfied
4  CC(C)CC(c1cccc(O)c1)N1CCN(Cc2ccccc2)CC1 (configuration not stated)  Mu-type opioid receptor (Rattus norvegicus)  not satisfied
5  Oc1cccc(C(c2ccc(-c3ccccc3)cc2)N2CCN(Cc3ccccc3)CC2)c1 (configuration not stated)  Mu-type opioid receptor (Rattus norvegicus)  not satisfied
